Source: patent US4352803A

Recorded concentration at 2 h by entry
assay: Plasma level in dogs; type: in vivo, Beagle dogs; settings: dog, plasma, 2 hr after oral 25 mg/kg
Numeric answer only, unit ng/mL assumed.

1. C=Cn1cc(C(=O)O)c(=O)c2cc(F)c(N3CCNCC3)nc21 [Compound 2] = 1500

Moving on to another molecule below.
Given CCn1cc(C(=O)O)c(=O)c2cc(F)c(N3CCNCC3)nc21 [Compound 1] , state its recorded concentration at 2 h.
5500

* * *

test: Plasma level in dogs; assay type: in vivo, Beagle dogs; settings: dog, plasma, 6 hr after oral 25 mg/kg
value type: concentration at 6 h (ng/mL)
Please state the figure in ng/mL; there is no need to write the unit.

1) C=Cn1cc(C(=O)O)c(=O)c2cc(F)c(N3CCNCC3)nc21 [Compound 2] = 5500

Now for the compound whose concentration at 6 h we want.
If you can, please state the reported concentration at 6 h value of CCn1cc(C(=O)O)c(=O)c2cc(F)c(N3CCNCC3)nc21 [Compound 1] .
4200

* * *

tested on: Pseudomonas aeruginosa Tsuchijima; test: In vitro antibacterial activity (MIC), Pseudomonas aeruginosa Tsuchijima; type: cell-based; conditions: Pseudomonas aeruginosa, read-out: minimum inhibitory concentration (MIC)
Where a name gives a salt, the structure may show the parent alone.
value type: MIC

1. CC1(C)S[C@@H]2[C@H](NC(=O)[C@H](N)c3ccccc3)C(=O)N2[C@H]1C(=O)O [H, D-α-Aminobenzylpenicillin] = > 200 mg/L
2. CC1(C)S[C@@H]2[C@H](NC(=O)C(C(=O)Oc3ccc4c(c3)CCC4)c3ccccc3)C(=O)N2[C@H]1C(=O)O (some centres unmarked) [G, sodium salt] = 6.25 mg/L
3. C=Cn1cc(C(=O)O)c(=O)c2cc(F)c(N3CCNCC3)nc21 [Compound 2] = 0.2 mg/L

Endpoint output: MIC of CCn1cc(C(=O)O)c(=O)c2ccc(C)nc21 [E] . Value?
200 mg/L

MIC lookup needed for CC1=C(C(=O)O)N2C(=O)[C@@H](NC(=O)[C@H](N)c3ccccc3)[C@H]2SC1 [J] , thanks.
> 200 mg/L

* * *

assay: Urinary excretion in dogs; type: in vivo, Beagle dogs; conditions: dog, urine, po, 25 mg/kg, urine pooled over 24 hours, oral 25 mg/kg, read-out: urinary recovery
Collected dose excreted at 24 h values appear next to each entry.
Returns: string containing the number followed by the unit.

1) CCn1cc(C(=O)O)c(=O)c2cc(F)c(N3CCNCC3)nc21 = 40.7%

Now examine the next entry.
Which value of dose excreted at 24 h has been reported for C=Cn1cc(C(=O)O)c(=O)c2cc(F)c(N3CCNCC3)nc21 in the records?
29.4%

* * *

Let's look at some compounds and their measured MIC.
Test system: Escherichia coli NIHJ JC-2
Experiment: In vitro antibacterial activity (MIC), Escherichia coli NIHJ JC-2
Format: cell-based
Conditions: NIHJJC2; Escherichia coli NIHJ JC-2; read-out: minimum inhibitory concentration (MIC)
Text: (MIC) (μg/ml) Method; Chemotherapy, 22(6), 1126 (1974)
Express your answer in mg/L, writing the number without its unit.

Reference set (3 entries):
1) C=Cn1cc(C(=O)O)c(=O)c2cc(F)c(N3CCNCC3)nc21 [Compound 2] = 0.1
2) CCn1cc(C(=O)O)c(=O)c2cc(F)c(N3CCNCC3)nc21 [Compound 1] = 0.2
3) C=Cn1cc(C(=O)O)c(=O)c2cc(Cl)c(N3CCNCC3)nc21 [Compound 4] = 0.2

// MIC lookup, key: CCn1cc(C(=O)O)c(=O)c2cc(Cl)c(N3CCNCC3)nc21.Cl [Compound 3]
0.78

* * *

Documented MIC across a set of compounds
tested on: Proteus morganii Kono; experiment: In vitro antibacterial activity (MIC), Proteus morganii Kono; format: cell-based; settings: Morganella morganii, read-out: minimum inhibitory concentration (MIC)
Write it as a number; the unit µg/mL goes unstated.

Record excerpt, results attached:
1. CCn1cc(C(=O)O)c(=O)c2ccc(N3CCNCC3)nc21 [Compound A] = 6.25
2. CCn1cc(C(=O)O)c(=O)c2cc(Cl)c(N3CCNCC3)nc21.Cl [Compound 3] = 1.56
3. CCn1cc(C(=O)O)c(=O)c2cc(Cl)c(N3CCNCC3)cc21 [Compound C] = 0.39
4. CCn1cc(C(=O)O)c(=O)c2cnc(N3CCNCC3)nc21 [F] = 3.13
5. CCn1cc(C(=O)O)c(=O)c2cc(F)c(N3CCNCC3)cc21 [Compound D] = 0.1
6. CCn1cc(C(=O)O)c(=O)c2cc(F)c(N3CCN(C)CC3)nc21 [Compound B] = 0.78

Continue with the compound presented below.
Look at this compound and give its reported MIC. CCn1cc(C(=O)O)c(=O)c2ccc(C)nc21 [E]
6.25

* * *

test: Plasma level in dogs; type: in vivo, Beagle dogs; conditions: dog, plasma, 8 hr after oral 25 mg/kg
value type: concentration at 8 h (ng/mL)
# number only, unit ng/mL dropped from output

Endpoint output: concentration at 8 h of C=Cn1cc(C(=O)O)c(=O)c2cc(F)c(N3CCNCC3)nc21 . Value?
5200

What measured concentration at 8 h goes with CCn1cc(C(=O)O)c(=O)c2cc(F)c(N3CCNCC3)nc21 ?
3700
